Entry source: patent US6337344B1

Listing of recorded melting point by entry.
Where a name gives a salt, the structure may show the parent alone.
observable: melting point

molecule="Cc1cc(CNC(=O)c2cc3c(O)cccc3n2Cc2cccc(C(=N)N)c2)cc(C(F)(F)F)c1 (as salt: trifluoroacetic acid salt)" result="126 °C"
molecule=Cc1cccc2c1cc(C(=O)NCc1ccc(N(C)C)cc1)n2Cc1cccc(C(=N)N)c1.O=C(O)C(F)(F)F.O=C(O)C(F)(F)F result="106 °C (dec.)"
molecule=C[N+](C)(C)c1ccc(CNC(=O)c2cc3cc(Cl)ccc3n2Cc2cccc(C(=N)N)c2)cc1.O=C(O)C(F)(F)F.O=C([O-])C(F)(F)F result="112 °C (dec.)"
molecule="N=C(N)c1cccc(Cn2c(C(=O)NC(c3ccccc3)c3ccncc3)cc3ccccc32)c1.O=C(O)C(F)(F)F.O=C(O)C(F)(F)F (racemic)" result="88 to 92 °C"
molecule=CC(=O)O.CC(=O)[O-].CC(C)(C)OC(=O)Nc1ccc2c(c1)cc(C(=O)NCc1ccc([N+](C)(C)C)cc1)n2Cc1cccc(C(=N)N)c1 result="146 °C (dec.)"
molecule=C[N+](C)(Cc1ccccc1)c1ccc(CNC(=O)c2cc3cc(F)ccc3n2Cc2cccc(C(=N)N)c2)cc1.Cl.[Cl-] result="136 °C"
molecule=C[n+]1ccc(CNC(=O)c2cc3cc(N)ccc3n2Cc2cccc(C(=N)N)c2)cc1.O=C(O)C(F)(F)F.O=C(O)C(F)(F)F.O=C([O-])C(F)(F)F result="115 °C"
molecule=C#CC[N+](C)(C)c1ccc(CNC(=O)c2cc3cc(F)ccc3n2Cc2cccc(C(=N)N)c2)cc1.CC(=O)O.CC(=O)[O-] result="109 °C (dec.)"
molecule=CN(C)c1ccc(CNC(=O)c2cc3ccccc3n2Cc2cccnc2)cc1 result="108 to 110 °C"
molecule=COc1cccc2c1cc(C(=O)NCCc1ccncc1)n2Cc1cccc(/C(N)=N/O)c1 result="220 to 222 °C"
molecule=CC(=O)O.CC(=O)[O-].C[N+](C)(C)c1ccc(CNC(=O)c2cc3cc(Br)ccc3n2Cc2cccc(C(=N)N)c2)cc1 result="86 °C (dec.)"
molecule=C[N+](C)(C)c1ccc(CNC(=O)c2cn(Cc3cccc(C(=N)N)c3)c3ccccc23)cc1.O=C(O)C(F)(F)F.O=C([O-])C(F)(F)F result="177 °C (dec.)"
molecule=N=C(N)c1cccc(COC(=O)c2cc3ccccc3n2Cc2cccc(C(=N)N)c2)c1.O=C(O)C(F)(F)F.O=C(O)C(F)(F)F result="258 °C"
molecule=Cl.N=C(N)c1ccc(Cn2c(C(=O)NCc3ccccc3)cc3ccccc32)cc1 result="266 to 268 °C (dec.)"
